System: HT-29 cells
EXPERIMENT DESCRIPTION: Cell viability, MTT assay, HT-29
Type: cell-based, human
ASSAY CONDITIONS: Homo sapiens, HT-29; 72 h, mean ± SD
pIC50: −log10 of the molar value.
We begin with a simple list: items and their reported pIC50.
OBSERVABLE: pIC50

COMPOUND | ASSAY TARGET | OBSERVABLE | MEASURED NUMBER
CC(C)C[C@H](NC(=O)[C@H](Cc1ccccc1)NC(=O)c1cnccn1)B(O)O [Bortezomib, bortezomib, reference compound] | HT-29 cells | pIC50 | 8.01
CC(C)c1nc(CN(C)C(=O)N[C@@H](CCN2CCOCC2)C(=O)N[C@H](CC[C@H](Cc2ccccc2)NC(=O)OCc2cncs2)Cc2ccccc2)cs1 [Compound 5, cobicistat, reference compound] | HT-29 cells | pIC50 | 4.15
C#CCCN1CCN(c2ccc(-n3c(=O)ccc4cnc5ccc(-c6ccc(N)nc6)cc5c43)cc2C(F)(F)F)CC1 [Compound 4] | HT-29 cells | pIC50 | 4.37
Cc1ccc2ccccc2c1CSc1ncnc2c1ncn2C1OC(CO)C(O)C1O (stereo not shown) [Compound 1] | HT-29 cells | pIC50 | 4.21
